# assay-system: Glutamate NMDA receptor
# assay-method-text: Inhibition of [3H]MK-801 binding to the PCP receptor site in guinea pig brain homogenate
recorded-endpoint: IC50 (nM)
// return numeric value only (unit: nM, not printed)

Example entries begin here.
molecule	assay-system	recorded-endpoint	measurement-unit	recorded-value
CN1CC2c3ccccc3CC1c1ccccc12 (single isomer, unassigned; (+))	Glutamate NMDA receptor	IC50	nM	826
Brc1ccc2c(c1)C1CNC(C2)c2ccccc21 (configuration not stated)	Glutamate NMDA receptor	IC50	nM	51.7
COc1ccc2c(c1)C1CNC2Cc2ccccc21 (configuration not stated)	Glutamate NMDA receptor	IC50	nM	332
Clc1ccc2c(c1)C1CNC(C2)c2ccccc21 (stereo in doubt; (+)-13c)	Glutamate NMDA receptor	IC50	nM	32.1
COc1ccc2c(c1)C1CN(C)C2Cc2ccc(Br)cc21 (configuration not stated)	Glutamate NMDA receptor	IC50	nM	643
COc1ccc2c(c1)C1CNC(C2)c2ccccc21 (configuration not stated)	Glutamate NMDA receptor	IC50	nM	168
COc1ccc2c(c1)C1CNC2Cc2ccc(Cl)cc21 (configuration not stated)	Glutamate NMDA receptor	IC50	nM	113
Ic1ccc2c(c1)C1CNC(C2)c2ccccc21 (configuration not stated)	Glutamate NMDA receptor	IC50	nM	160

Continue with the next molecule.
Recall and state the measured IC50 for Clc1ccc2c(c1)C1CNC(C2)c2ccccc21 (stereo in doubt; (-)-13c) .
931

* * *

# assay-system: Glutamate NMDA receptor
# assay-method-text: Inhibition of [3H]MK-801 binding to the PCP receptor site in guinea pig brain homogenate
pIC50: −log10 of the molar value.
Label t when pIC50 >= 6; otherwise f.

For orientation, consider the following solved cases.
compound	class-assignment
Cc1ccc2c(c1)C1CNC(C2)c2ccccc21 (stereo unspecified)	t
CC(C)N1CC2c3ccccc3CC1c1ccccc12 (stereo unspecified)	f
Fc1ccc2c(c1)C1CNC(C2)c2ccc(F)cc21 (stereo unspecified)	t

# bool: pIC50 of c1ccc(-c2ccc3c(c2)C2CNC(C3)c3ccccc32)cc1 (stereo unspecified) >= 6
t

Please check the record Fc1ccc2c(c1)C1CNC(C2)c2ccccc21 (single isomer, unassigned; (-)) and state if its pIC50 is at or above 6.
t

* * *

# assay-method-text: In vitro neuroprotection against glutamate-induced toxicity at 5 uM using rat hippocampal cell cultures at 1000 uM of glutamate
# Format: functional, Hippocampus
recorded-endpoint: Neuroprotection (%)
Value expressed in %; do not type the unit.

Observe how each entry below is paired with its result.
compound	Neuroprotection (%)
C[C@]12N[C@H](Cc3ccccc31)c1ccccc12 [DIZOCILPINE]	88.4
c1ccc2c(c1)CC1NCC2c2ccccc21 (racemic)	25.5
CN1CC2c3ccccc3CC1c1ccccc12 (single isomer, unassigned; (+))	23.3

Now consider a different compound.
For the compound c1ccc2c(c1)CC1NCC2c2ccccc21 (single isomer, unassigned; (+)) , give its measured Neuroprotection value.
40.5

* * *

# assay-system: Glutamate NMDA receptor
# assay-method-text: Inhibition of [3H]MK-801 binding to the PCP receptor site in guinea pig brain homogenate
recorded-endpoint: pIC50
In textbook form, pIC50 equals minus log to base ten of the concentration in mol/L.

Use these answered entries as a reference point.
compound	pIC50
[N-]=[N+]=Nc1ccc2c(c1)C1CNC(C2)c2ccccc21 (stereo unspecified)	6.30
Clc1ccc2c(c1)C1CNC(C2)c2ccccc21 (stereo in doubt; 13c)	7.15
CN(C)CCCN1CC2c3ccccc3CC1c1ccccc12 (stereo unspecified)	4.92
Fc1ccc2c(c1)C1CNC(C2)c2ccccc21 (single isomer, unassigned; (+))	7.81
Nc1ccc2c(c1)C1CNC(C2)c2ccccc21 (stereo unspecified)	6.31
Clc1ccc2c(c1)C1CNC2Cc2ccccc21 (stereo unspecified)	6.16
COc1ccc2c(c1)C1CNC2Cc2ccc(Br)cc21 (stereo unspecified)	6.94
c1ccc2c(c1)CC1NCC2c2ccccc21 (stereo in doubt; 3)	7.23

Tell us which pIC50 value is on record for CC12CNC(Cc3ccccc31)c1ccccc12 (stereo unspecified)
6.92

Give the reported value of pIC50 for this record: Fc1ccc2c(c1)C1CNC(C2)c2ccccc21 (stereo in doubt; 13e)
7.53

// fetch pIC50 given entry O=[N+]([O-])c1ccc2c(c1)C1CNC(C2)c2ccccc21 (stereo unspecified)
5.37

* * *

# assay-method-text: In vitro neuroprotection against glutamate-induced toxicity at 5 uM using rat hippocampal cell cultures at 3 uM of glutamate
# Assay type: functional, Hippocampus
Property: Neuroprotection; scope: individual compounds
Give just the number in %; leave the unit off.

compound	measurement-unit	Neuroprotection
c1ccc2c(c1)CC1NCC2c2ccccc21 (single isomer, unassigned; (+))	%	68.8
c1ccc2c(c1)CC1NCC2c2ccccc21 (racemic)	%	85.3
CN1CC2c3ccccc3CC1c1ccccc12 (single isomer, unassigned; (+))	%	74.7

Consider the record given below.
// Input: C[C@]12N[C@H](Cc3ccccc31)c1ccccc12 [DIZOCILPINE] . Output its Neuroprotection only.
98.3

* * *

# assay-method-text: In vitro neuroprotection against glutamate-induced toxicity at 5 uM using rat hippocampal cell cultures at 0 uM of glutamate
# Assay type: functional, Hippocampus
recorded-endpoint: Neuroprotection (%)
// return numeric value only (unit: %, not printed)

Please report the measured Neuroprotection for C[C@]12N[C@H](Cc3ccccc31)c1ccccc12
97.5

* * *

# assay-system: Glutamate NMDA receptor
# assay-method-text: Inhibition of [3H]MK-801 binding to the PCP receptor site in guinea pig brain homogenate
pIC50: −log10 of the molar value.
recorded-endpoint: pIC50

Consider the worked cases shown below.
molecule	pIC50
CC(=O)N1CC2c3cc([N+](=O)[O-])ccc3CC1c1ccccc12 (stereo not drawn)	< 5.00
CC(=O)N1CC2c3ccccc3CC1c1ccccc12 (stereo not drawn)	< 5.00

Item c1ccc(CN2CC3c4ccccc4CC2c2ccccc23)nc1 (stereo not drawn) : provide pIC50
< 5.00

* * *

Measured Neuroprotection, listed per entry.
# assay-method-text: In vitro neuroprotection against glutamate-induced toxicity at 5 uM using rat hippocampal cell cultures at 0 uM of glutamate
# Type: functional, Hippocampus
Give the number; % is assumed, so skip it.

As a guide, the following entries are already answered.
compound	measurement-unit	Neuroprotection
c1ccc2c(c1)CC1NCC2c2ccccc21 (single isomer, unassigned; (+))	%	93.6
c1ccc2c(c1)CC1NCC2c2ccccc21 (racemic)	%	99.1

State its Neuroprotection for this compound: CN1CC2c3ccccc3CC1c1ccccc12 (single isomer, unassigned; (+))
91
